Field: pKd. Provide a value for each of the binders that follow.
# Experimental system: ΔNCL (DelNucleolin) (UniProt P19338 284-710, del1-283)
# Sequence (P19338 284-710, stated change not applied): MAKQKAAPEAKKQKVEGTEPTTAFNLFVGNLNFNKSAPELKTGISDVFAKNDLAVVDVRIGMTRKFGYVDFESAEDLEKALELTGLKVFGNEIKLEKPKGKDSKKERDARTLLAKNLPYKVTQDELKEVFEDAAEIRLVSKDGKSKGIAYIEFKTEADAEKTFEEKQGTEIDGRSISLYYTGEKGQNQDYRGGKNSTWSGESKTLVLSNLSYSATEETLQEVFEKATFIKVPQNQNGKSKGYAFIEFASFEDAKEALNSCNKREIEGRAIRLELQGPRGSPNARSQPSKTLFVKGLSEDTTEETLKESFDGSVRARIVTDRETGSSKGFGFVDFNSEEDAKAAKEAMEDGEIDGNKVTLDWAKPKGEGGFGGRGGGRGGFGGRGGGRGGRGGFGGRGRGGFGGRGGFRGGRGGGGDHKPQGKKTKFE
# Assay: SPR
API: returns pKd as number; meaning -log10 of concentration in mol/L.

Briefly, pKd measured for Q2 (biotinylated, SPR) (structured_RNA) RNA: UUUUUCCUGGAAUUUGGAGGGAUGGGAGGAGGGGGUGGGGCUUACUUGUUGUAGCUU : 8.40

Briefly, pKd measured for Q3 (biotinylated, SPR) (structured_RNA) RNA: CUCAAGCGGUGCUUGAAGGGGAGGGAAAGCGGGAAAGCGGGCAACCACUUUUCCCUAGC : 7.82
